Source of measurements: patent US20240101683A1

- measuredTarget: T1, rhFGFR2IIIb-Fc (recombinant human FGFR2IIIb-Fc) (human, UniProt P21802-3 22-378, limits assumed)
- T1 construct: Coated on the ELISA plate at 2 ug/mL; not shown: Fc part
- T1 sequence (P21802 other isoform, or with tags, fused parts or gaps limits assumed): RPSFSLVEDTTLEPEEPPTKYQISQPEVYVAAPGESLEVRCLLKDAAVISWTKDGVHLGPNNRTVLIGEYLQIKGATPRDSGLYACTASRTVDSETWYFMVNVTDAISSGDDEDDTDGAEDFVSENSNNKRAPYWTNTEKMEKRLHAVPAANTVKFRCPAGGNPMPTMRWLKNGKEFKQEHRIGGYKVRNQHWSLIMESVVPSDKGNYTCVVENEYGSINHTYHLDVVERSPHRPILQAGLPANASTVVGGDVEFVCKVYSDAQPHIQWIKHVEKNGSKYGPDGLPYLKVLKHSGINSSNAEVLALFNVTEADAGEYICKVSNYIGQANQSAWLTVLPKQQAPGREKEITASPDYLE
- testDescription: ELISA, coated rhFGFR2IIIb-Fc, anti-Fab HRP
pEC50: −log10 of the molar value.
experimentalEndpoint: pEC50

binder	observedValue
FWB1924 (antibody, V domains shown) VH: QVQLVQSGAEVKKPGSSVKVSCKASGYIFTSYNVHWVRQAPGQGLEWIGSLYPDNGDTSYDEDYKGRATITADKSTSTAYMELSSLRSEDTAVYYCARGDFAYWGQGTLVTVSS VL: DIQMTQSPSSLSASVGDRVTITCKVSQGVSNDAVWYQQKPGKAPKLLIYSASYRYSGVPSRFSGSGSGTDFTFTISSLQPEDIATYYCQQHSTTPYTFGQGTKLEIK	8.72
FWB1923 (antibody, V domains shown) VH: QVQLVQSGAEVKKPGSSVKVSCKASGYIFTSYNVHWVRQAPGQGLEWIGSIYPDNGDSTYDEDFKGRATITADKSTSTAYMELSSLRSEDTAVYYCARGDFAYWGQGTLVTVSS VL: DIQMTQSPSSLSASVGDRVTITCKVSQGVSNDAVWYQQKPGKAPKLLIYSASYRYSGVPSRFSGSGSGTDFTFTISSLQPEDIATYYCQQHSTTPYTFGQGTKLEIK	8.77
FWB1920 (antibody, V domains shown) VH: QVQLVQSGAEVKKPGSSVKVSCKASGYIFTSYNIHWVRQAPGQGLEWIGSIYPDNGDSSYNQNYRGRATITADKSTSTAYMELSSLRSEDTAVYYCARGDFAYWGQGTLVTVSS VL: DIQMTQSPSSLSASVGDRVTITCKGSNGVSNDIAWYQQKPGKAPKLLIYSASYRYSGVPSRFSGSGSGTDFTFTISSLQPEDIATYYCQQHSTTPYTFGQGTKLEIK	8.92
